Provide the recorded activation for the entries that follow.
target: Galanin receptor type 2 (Homo sapiens) (UniProt O43603); assay: GALR2 receptor agonists, primary screen, cell-based (AID 803); conditions: GALR2-expressing cells, agonist activation read-out; at 5.6 µM; hits give high values;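 further: 0% = vehicle buffer wells and 100% = reference agonist at full effect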
Sequence (O43603 whole entry, looked up): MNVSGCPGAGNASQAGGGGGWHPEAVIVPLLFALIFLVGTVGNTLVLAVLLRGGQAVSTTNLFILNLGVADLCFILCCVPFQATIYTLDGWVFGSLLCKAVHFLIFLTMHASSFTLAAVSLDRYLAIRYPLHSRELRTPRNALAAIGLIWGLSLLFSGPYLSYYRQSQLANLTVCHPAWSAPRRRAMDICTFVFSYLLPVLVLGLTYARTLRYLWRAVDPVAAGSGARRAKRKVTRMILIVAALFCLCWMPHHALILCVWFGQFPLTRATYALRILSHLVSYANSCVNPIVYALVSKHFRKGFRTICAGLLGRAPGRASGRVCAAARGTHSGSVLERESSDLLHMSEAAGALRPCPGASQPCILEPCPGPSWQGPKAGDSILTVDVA
The whole screen tested about 140,000 compounds, of which about 680 (0.49%) were called active. This is one part of a sample in which actives are shown more often than they occur.

get_value(item= O=C(NCC1CCCO1)/C(=C/c1ccc(Cl)cc1)NC(=O)c1ccccc1 (configuration not stated) , readout=activation) returns -1.2% (inactive)

get_value(item= `CCNS(=O)(=O)c1ccc(NC(=O)c2cncc(Br)c2)cc1` , readout=activation) returns -1.39% (inactive)

get_value(item= `CCOc1ccccc1C1C(C(=O)OC)=CN(C)C=C1C(=O)OC` , readout=activation) returns 10.7% (active)

get_value(item= CCC(C)NC(=O)c1c(N)n(/N=C/c2cccs2)c2nc3ccccc3nc12 (configuration not stated) , readout=activation) returns -0.44% (inactive)

get_value(item= `Cc1ccc(-c2cc(N)on2)cc1` , readout=activation) returns -1.6% (inactive)

get_value(item= `CN(C)S(=O)(=O)c1cccc(NC(=S)N/N=C/C(=O)c2ccccc2)c1` , readout=activation) returns 0.25% (inactive)

get_value(item= `COc1cc(SC#N)ccc1N=Cc1c(C)[nH]n(-c2ccc(C)cc2)c1=O` , readout=activation) returns 17.6% (active)

get_value(item= `Cc1noc(/C=C/c2ccco2)c1S(=O)(=O)N1CCC(C(=O)Nc2ccc(Cl)cn2)CC1` , readout=activation) returns -1.28% (inactive)

get_value(item= Cc1ccc(C(C)NC(=O)Cn2nc(C)c([N+](=O)[O-])c2C)cc1 (configuration not stated) , readout=activation) returns -0.83% (inactive)

get_value(item= `COc1ccc(NC(=O)CN2C(=O)C(c3ccccc3)=NC23CCCCCC3)cc1OC` , readout=activation) returns -2.09% (inactive)

get_value(item= `O=C(Cn1nnc(-c2ccccc2)n1)N/N=C/c1ccc(-c2ccc(Cl)cc2)o1` , readout=activation) returns -0.89% (inactive)

get_value(item= `CC(C)NC(=O)C(=O)NCCCOC(C)C` , readout=activation) returns -1.05% (inactive)

get_value(item= `C=CCn1c(N)c(C(=O)OCC(C)C)c2nc3ccccc3nc21` , readout=activation) returns -3.82% (inactive)

get_value(item= `CCCCOc1ccc(C(=O)NCC(=O)OCC(=O)N2CCN(S(=O)(=O)c3ccc(C)cc3C)CC2)cc1` , readout=activation) returns 7.56% (active)

get_value(item= `CCCc1cc(=O)[nH]c(SCC(=O)N2CCN(S(=O)(=O)c3ccc(C)cc3C)CC2)n1` , readout=activation) returns 2.71% (inactive)

get_value(item= CC(=O)NC(Cc1ccccc1)C(=O)NC1CCN(c2ncccc2[N+](=O)[O-])CC1 (configuration not stated) , readout=activation) returns -0.16% (inactive)

get_value(item= COc1cc(CN2CC(C)CC(C)C2)cc([N+](=O)[O-])c1O (configuration not stated) , readout=activation) returns 0.36% (inactive)

get_value(item= `NNC(=O)c1ccc(Cl)cc1Cl` , readout=activation) returns 0.25% (inactive)

get_value(item= `C/C(CC(=O)Nc1cccc(F)c1)=N\NC(=O)C(=O)NC1CCCCC1` , readout=activation) returns -0.33% (inactive)

get_value(item= `CCOc1cc(C2C(C(=O)OC)=CN(C3CCCC3)C=C2C(=O)OC)cc(Br)c1O` , readout=activation) returns 2.25% (inactive)

get_value(item= CC12CN3CC(C)(CN(C1)C3c1ccc(Cl)cc1Cl)C2=O (configuration not stated) , readout=activation) returns -0.09% (inactive)

get_value(item= `CCCCOc1ccc(C(=O)NN2CCN(C)CC2)cc1` , readout=activation) returns 0.08% (inactive)

Source: PubChem BioAssay AID803
